# measurement.notes: qHTS assay for cell viability of the p53RE-bla HCT-116 cell line (AID 743292); also: nearly all actives have a fitted effect of over 55% in size
# particulars: p53RE-bla HCT-116 viability, ATP luminescence, 16 h; series mostly up to 95 µM
Results filed as inconclusive are left out. Activity calls are given as the source filed them. Calls follow the shape of the dose curve; as a rule, active = well fitted cell-killing curve with a large enough effect; inconclusive = small, poorly fitted or top-dose-only effect, or effect the other way; inactive = flat fitted curve, though single readings scatter.
// classify into active, inactive

CO/N=C(/C(=O)OC)c1ccccc1COc1ccccc1C	inactive
COP(=S)(OC)Oc1c(Cl)cc(C)cc1Cl	inactive
Cc1cccc2sc3nncn3c12	inactive
CC(C)=C[C@@H]1[C@@H](C(=O)OCN2C(=O)C3=C(CCCC3)C2=O)C1(C)C	inactive
CNC(=O)Oc1cc(C)cc(C(C)C)c1	inactive
CC1COC(Cn2cncn2)(c2ccc(Oc3ccc(Cl)cc3)cc2Cl)O1 (stereo not given)	inactive

Task: Short answer needed: outcome of this test for CC(C)=CC1C(C(=O)OCc2coc(Cc3ccccc3)c2)C1(C)C (stereo not given) ?
Result: inactive

Task: Another molecule to look at: ClC1=C(Cl)[C@]2(Cl)[C@H]3[C@H]([C@@H]4C=C[C@H]3C4)[C@]1(Cl)C2(Cl)Cl
Result: active

Task: Another molecule to look at: CC(C)N(C(=O)CCl)c1ccccc1
Result: inactive

Task: Another molecule to look at: CN(C)c1ccc(C(=O)c2ccc(N(C)C)cc2)cc1
Result: inactive

* * *

# measurement.notes: Cell Viability - Hek293 (AID 427);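 also: cells exposed to compound for 40 hours at 37 °C before reading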
# particulars: qHTS
Records with an inconclusive call do not appear. Active and inactive are the calls of the source.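 Rule for the calls: active = compounds whose dose-response curve shows a full or clear partial loss of cell viability, called from curve shape rather than a numeric limit; inconclusive = weak partial curves or an effect only at the top dose; inactive = no dose-dependent loss of viability.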
// classify into 1 (yes) (active), 0 (no) (inactive)

Worked set:
O=C(O)C1C(C(=O)O)C2(Cl)C(Cl)=C(Cl)C1(Cl)C2(Cl)Cl (stereo not drawn)	0 (no)
C#CCO	0 (no)
O=[N+]([O-])c1ccccc1Cl	0 (no)
ClC1=C(Cl)C2(Cl)C3C(Cl)C(Cl)CC3C1(Cl)C2(Cl)Cl (stereo not drawn)	1 (yes)
Cc1ccc(O)cc1C	0 (no)
[CH3][Hg][Cl]	1 (yes)
N#CSCSC#N	1 (yes)
CN(C)c1ccc(N=O)cc1	1 (yes)

Consider the additional compound presented here.
Task: Short answer needed: outcome of this test for FC(F)(F)c1ccc(Cl)cc1 ?
Result: 0 (no)

* * *

# target.system: Muscarinic acetylcholine receptor M1 (Rattus norvegicus) (UniProt P08482)
# Sequence (P08482 whole entry, looked up): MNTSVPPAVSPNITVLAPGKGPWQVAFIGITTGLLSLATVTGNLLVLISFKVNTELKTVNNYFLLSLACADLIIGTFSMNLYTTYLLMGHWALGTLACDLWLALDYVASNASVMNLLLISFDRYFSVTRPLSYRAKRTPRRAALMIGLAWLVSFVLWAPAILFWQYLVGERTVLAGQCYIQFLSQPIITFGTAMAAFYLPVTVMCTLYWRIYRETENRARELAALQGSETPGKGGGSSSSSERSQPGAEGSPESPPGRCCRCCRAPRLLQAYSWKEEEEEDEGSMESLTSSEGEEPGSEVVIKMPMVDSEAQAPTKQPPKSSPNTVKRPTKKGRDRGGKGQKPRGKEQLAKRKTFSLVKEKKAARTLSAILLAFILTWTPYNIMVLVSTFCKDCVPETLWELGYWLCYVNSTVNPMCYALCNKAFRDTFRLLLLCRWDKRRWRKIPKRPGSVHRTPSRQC
# measurement.notes: qHTS Assay for Antagonists of Acetylcholine Muscarinic M1 Receptor: Measurement of IP-One Response (AID 944); also: nearly all actives have a fitted effect of over 75% in size
# particulars: CHO-M1 cells, IP-One HTRF, antagonist mode; series mostly up to 46.1 µM
Records with an inconclusive call do not appear. Active and inactive are the calls of the source. Calls come from the whole dose curve; as a rule, active = well fitted inhibition curve with a large enough effect; inconclusive = small, poorly fitted or top-dose-only effect; inactive = no such curve, though single readings can be large or run the other way.
// classify into TRUE (active), FALSE (inactive)

Worked set:
NC(N)=Nc1ccc2[nH]c3c(c2c1)C[C@]1(O)[C@@H]2Cc4ccc(O)c5c4[C@]1(CCN2CC1CC1)[C@H]3O5	TRUE
Oc1ccc2c3c1O[C@@H]1[C@@H](O)CC[C@]4(O)[C@H](C2)N(CC2CCC2)CC[C@@]314	FALSE
O=[N+]([O-])c1ccc(O[C@H]2O[C@@H](CO)[C@@H](O)[C@@H](O)[C@@H]2F)c([N+](=O)[O-])c1	FALSE
O[C@@H]1CCCC[C@H]1N1CCC(c2ccccc2)CC1	FALSE
Oc1cc2c(cc1O)[C@H]1c3ccccc3CN[C@@H]1CC2	FALSE

Consider the additional compound presented here.
Task: Short answer needed: outcome of this test for C[C@@H](Cc1ccc2c(c1)OC(C(=O)O)(C(=O)O)O2)NC[C@H](O)c1cccc(Cl)c1 ?
Result: FALSE

Reference source for all entries: PubChem BioAssay (NCATS)
